- TEST SYSTEM: SARS-CoV-2 Spike protein receptor-binding domain (RBD) (SARS-CoV-2, UniProt P0DTC2 319-527)
- EXPERIMENT SUMMARY: BLI (Octet), IgG1 captured on anti-human Fc sensors, RBD in solution
MEASURED ATTRIBUTE: koff (s⁻¹)

binder="AB-1 full-length IgG1 (antibody, V domains shown) VH: EVQLEESGTVLARPGASVKMSCKASGYTFTTYWMHWIKQRPGQGLEWIGAIYPGNSDTQYNQKFKDKAKLTAVKSTSSAYMELSSLTNEDSAVYFCTREGIPQLLRTLDYWGQGTSVTVSS VL: DILMTQSPSSLSASLGERVSLTCRASQEISGYLSWLQEKPDGTIKRLIYAASTLDSGVPKRFSGSRSGSDYSLTISSLESEDFADYYCLQYLSYPWTFGGGTKLEIK" quantitative_readout=0.00127
binder="AB-10 full-length IgG1 (humanized) (antibody, V domains shown) VH: QVQLVQSGAEVKKPGASVKVSCKASGYTFTSYWMHWVRQAPGQGLEWMGAIYPGNGDTNYAQKFQGRVTMTADTSISTAYMELSRLRSDDTAVYYCTREGIPQLLNTLDVWGQGTLVTVSS VL: DIQMTQSPSSLSASVGDRVTITCRASQEISGYLNWYQQKPGKAPKRLIYAASSLQSGVPSRFSGSGSGTDFTLTISSLQPEDFATYYCQQYLSYPWTFGQGTKVEIK" quantitative_readout=0.00306
